- measured-target: Mu-type opioid receptor (Mus musculus)
- assay: Displacement of [3H]DAMGO from mu opioid receptor in CD1 mouse whole brain minus cerebellum membranes by liquid scintillation counting
// values below are reported Ki

[
  {
    "compound": "C=CC(C)(O)CC[C@@]1(C)[C@H](C)CC[C@]2(C)[C@@H]1C[C@@H](O)[C@H]1O[C@]12C (stereo partly drawn)",
    "Ki": "> 50 µM"
  },
  {
    "compound": "COc1cc(-c2cc(=O)c3c(O)c(OC)c(OC)c(OC)c3o2)ccc1O",
    "Ki": "> 50 µM"
  },
  {
    "compound": "COc1ccc(-c2cc(=O)c3c(O)c(OC)c(OC)c(OC)c3o2)cc1",
    "Ki": "> 50 µM"
  }
]

Hello, the source for this data is ChEMBL document CHEMBL3392994, in case you need it.
